Molecular target: UniProt P32245
Sequence (P32245 whole entry, the tested form may be a part): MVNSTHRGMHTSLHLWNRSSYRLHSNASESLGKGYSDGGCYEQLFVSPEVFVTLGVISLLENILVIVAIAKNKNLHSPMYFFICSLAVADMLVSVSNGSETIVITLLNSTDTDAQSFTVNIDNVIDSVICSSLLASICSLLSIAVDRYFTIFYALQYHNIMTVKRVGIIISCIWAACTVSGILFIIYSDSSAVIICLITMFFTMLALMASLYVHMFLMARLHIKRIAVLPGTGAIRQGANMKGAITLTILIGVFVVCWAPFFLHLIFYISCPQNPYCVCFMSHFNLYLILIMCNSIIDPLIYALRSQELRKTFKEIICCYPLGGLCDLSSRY
Test: Agonist activity at EYFP-fused human MC4R expressed in HEK293 cells after 16 to 20 hrs by CRE-driven reporter assay
Format: functional, cell-based
# EC50 per entry
Kindly provide the numeric value in nM only, without the unit symbol.

CSCC[C@H](NC(=O)[C@@H]1Cc2cn(nn2)C[C@H](NC(=O)[C@@H](N)CCCCN)C(=O)N[C@@H](Cc2cnc[nH]2)C(=O)N[C@H](C)C(=O)N[C@@H](CCCNC(=N)N)C(=O)N[C@@H](Cc2c[nH]c3ccccc23)C(=O)N1)C(=O)O ... 112

// below: EC50 requested for another compound
QUERY: Need EC50, item "CSCC[C@H](NC(=O)[C@@H]1Cc2cn(nn2)C[C@H](NC(=O)[C@@H](N)CCCCN)C(=O)N[C@@H](Cc2cnc[nH]2)C(=O)N[C@H](Cc2ccccc2)C(=O)N[C@@H](CCCN)C(=O)N[C@@H](Cc2c[nH]c3ccccc23)C(=O)N1)C(=O)O"
RESULT: 318

Sourced from ChEMBL document CHEMBL4028868
